Reported GI50 values follow for various molecules
Test system: M14 melanoma
Test: NCI tumour cell line growth inhibition, 48 h

- Molecule: "CCc1ccc(Oc2c(-c3ccc(OCc4ccc(Cl)cc4)cc3O)nn(C)c2C(F)(F)F)cc1"
  GI50: "1.17 µM"
- Molecule: "C[C@]12CCc3nc(Nc4ccc(O)cc4)sc3C1=CC[C@@H]1[C@@H]2CC[C@]2(C)/C(=N/NC(N)=S)CC[C@@H]12"
  GI50: "1.18 µM"
- Molecule: "Cc1ccccc1Nc1cc(O)c2c(=O)cc(-c3ccccc3)oc2c1"
  GI50: "2.39 µM"
- Molecule: "C/C(=C/CCC(C)[C@@H]1CC[C@]2(C)C3=C(CC[C@@]12C)[C@@]1(C)CCC(=O)C(C)(C)[C@@H]1CC3)C(=O)O (stereo not given in full)"
  GI50: "1.1 µM"
- Molecule: "O=C(Nc1nc2ccc(S(=O)(=O)Nc3ccc(C4(C(F)(F)F)CC4)cc3)cc2[nH]1)c1cnccn1"
  GI50: "1.12 µM"

----------
Test system: NCI/ADR-RES ovarian
Experiment: NCI tumour cell line growth inhibition, 48 h; in the data active means GI50 below about 0.43 µM; inactive means the rest
Classes used: y (active), n (inactive)

- Compound: "COC(=O)c1ccc(NC(N)=NCCC(C)(C)c2ccc(C(F)(F)F)cc2)nc1"
  Classification: "n"
- Compound: "O=C(Nc1ccc(-n2cc(-c3ccncc3)c(-c3ccc(O)c(Cl)c3)n2)cc1)Nc1cc(C(F)(F)F)cc(C(F)(F)F)c1"
  Classification: "n"
- Compound: "O=C1c2ccccc2-c2c1c1ccccc1c(=O)n2CCCNCCNCCCn1c2c(c3ccccc3c1=O)C(=O)c1ccccc1-2"
  Classification: "y"
- Compound: "Cn1cc(-c2ccc3ncc(-c4ccc(CC(=O)Nc5cc(C(C)(C)C)nn5C)cc4)cc3c2)cn1"
  Classification: "n"
- Compound: "N#CN1CC[C@H](C(=O)Nc2ncc(-c3ccccc3)s2)C1"
  Classification: "n"
- Compound: "COc1cc([C@@H]2c3cc4c(cc3[C@H](SC(=N)N)[C@H]3COC(=O)[C@H]23)OCO4)cc(OC)c1OC"
  Classification: "y"
- Compound: "CC(=O)Nc1cccc(C#Cc2cncnc2Nc2ccc(OCc3cccc(F)c3)c(Cl)c2)c1"
  Classification: "n"
- Compound: "COc1cccc(-c2cc(=O)c3cc(N4CCN(C)CC4)ccc3[nH]2)c1"
  Classification: "n"
- Compound: "NC1=NC(c2ccccc2Cl)c2c(n[nH]c2N)N1 (centres undefined)"
  Classification: "n"

----------
Test system: NCI-H460 lung
Test: NCI tumour cell line growth inhibition, 48 h
Reported TGI values follow for various molecules

- Molecule: "Cc1ccc(NC(=O)CC/C(CC(=O)C(C)(C)C)=N/NC(=O)c2cc3ccccc3cc2O)cc1C"
  TGI: "> 100 µM"
- Molecule: "CCCCCCCCCCCCCCCCNc1nc(=O)n(C2OC(C)C(O)C2O)cc1F (configuration not stated)"
  TGI: "33.9 µM"
- Molecule: "CC(=O)CCC1(C(=O)OCC(C)C)CCCC1=O (configuration not stated)"
  TGI: "> 100 µM"
- Molecule: "COc1ccc(-c2cnc(-c3ccncc3-c3cccc(OC)c3)o2)cc1"
  TGI: "4.03 µM"
- Molecule: "Cc1cc(OC2OC(CO)C(O)C(O)C2O)ccc1O (configuration not stated)"
  TGI: "> 100 µM"
- Molecule: "CCN1C(=O)N(CC)C2C1NC(=S)N2/N=C/C=C/c1ccccc1 (configuration not stated)"
  TGI: "> 100 µM"
- Molecule: "COc1ccc(C2C(=O)c3ccc(OC)cc3OC2c2cccnc2)cc1 (configuration not stated)"
  TGI: "> 100 µM"
- Molecule: "Cc1n[nH]c(=O)n1-n1cccc1"
  TGI: "> 100 µM"
- Molecule: "Cc1ccc(S(=O)(=O)Nc2ccccc2C(C)(C)C)cc1"
  TGI: "42.2 µM"
- Molecule: "CC1(C)C(=O)/C(=C/c2ccccc2)C(C)(C)C1(C)C"
  TGI: "> 100 µM"
- Molecule: "NC1CCC2(O)c3ccccc3C2C1 (configuration not stated)"
  TGI: "> 100 µM"
- Molecule: "C/C(=N/NC(=S)Nc1ccc(C)cc1)c1ccccn1"
  TGI: "7.95 µM"
- Molecule: "[N-]=[N+]=CC(=O)C1CCN(c2ccccc2)C1=O (configuration not stated)"
  TGI: "> 10 µM"
- Molecule: "O=C(Nc1ccc(-n2cc(-c3ccncc3)c(-c3ccc(Cl)c(O)c3)n2)cc1)c1cc(C(F)(F)F)cc(C(F)(F)F)c1"
  TGI: "14 µM"
- Molecule: "O=C(OCCN=c1c2ccccc2ccc2ccccc12)c1cc([N+](=O)[O-])cc([N+](=O)[O-])c1"
  TGI: "> 100 µM"
- Molecule: "CCc1c(O)nc(Nc2nc3ccccc3[nH]2)[nH]c1=O"
  TGI: "> 100 µM"
- Molecule: "[O-][n+]1c2cccc(O)c2[n+]([O-])c2cccc(O)c21"
  TGI: "> 100 µM"
- Molecule: "CC(C)CNP(=O)(NCC(C)C)Oc1ccc(CC(NC(=O)OCc2ccccc2)C(=O)OCc2ccccc2)cc1 (configuration not stated)"
  TGI: "33.4 µM"
- Molecule: "CS(=O)(=O)OCCN1CCN(C(=O)c2ccc(Cl)c3c(Nc4ccc(S(=O)(=O)N=C(N)N)cc4)c4ccccc4nc23)CC1"
  TGI: "> 100 µM"
- Molecule: "O=C(O)c1ccccc1NCn1nc(-c2ccccc2O)oc1=S"
  TGI: "> 100 µM"
- Molecule: "OCC1OC(OC2(CO)OC(CO)C(O)C2O)C(O)C(O)C1O (configuration not stated)"
  TGI: "> 100 µM"
- Molecule: "Cc1ccc(C(=O)Nc2ccc(Oc3cc4cnn(C)c4cc3-c3cn[nH]c3)c(F)c2)c(=O)n1-c1ccc(F)cc1"
  TGI: "> 100 µM"

----------
Reported TGI values follow for various compounds
Test system: HOP-92 NSCLC
Assay: NCI tumour cell line growth inhibition, 48 h

- Compound: "CCCCCCCCCCCCCCCCNc1nc(=O)n(C2OC(C)C(O)C2O)cc1F (stereo unspecified)"
  Output unit: "µM"
  Relation qualifier: "="
  TGI: 45.7
- Compound: "CCNC(=S)N/N=C(/C)c1cccc(/C(C)=N\\NC(=S)NCC)n1"
  Output unit: "µM"
  Relation qualifier: "="
  TGI: 24.6
- Compound: "COc1ccccc1/C=C(\\NC(=O)c1ccccc1)c1nc2ccc(Cl)cc2[nH]1"
  Output unit: "µM"
  Relation qualifier: "="
  TGI: 56.8
- Compound: "Cc1cc(-c2ccc(N=Nc3ccc4c(S(=O)(=O)O)cc(S(=O)(=O)O)c(N)c4c3O)c(C)c2)ccc1N=Nc1ccc2c(S(=O)(=O)O)cc(S(=O)(=O)O)c(N)c2c1O"
  Output unit: "µM"
  Relation qualifier: ">"
  TGI: 100
- Compound: "CN1CCCc2nc3ccccc3n2C1"
  Output unit: "µM"
  Relation qualifier: ">"
  TGI: 100
- Compound: "O=c1[nH]nc(Nc2ccc(Cl)cc2)c2nnn(C3CCCCC3)c12"
  Output unit: "µM"
  Relation qualifier: "="
  TGI: 66
- Compound: "COS(=O)c1cc(Cl)cc(Cl)c1OC(=O)CSSCC(=O)Oc1c(Cl)cc(Cl)cc1S(=O)OC (stereo unspecified)"
  Output unit: "µM"
  Relation qualifier: "="
  TGI: 53.2
- Compound: "CCCCCCCCCCCCOCC(COP(=O)(O)OCCN=[N+]=[N-])OC(=O)CCCCCCCCCCC (stereo unspecified)"
  Output unit: "µM"
  Relation qualifier: ">"
  TGI: 100
- Compound: "O=c1c2ccc(Cl)cc2oc2c(CSc3ccccc3)cccc12"
  Output unit: "µM"
  Relation qualifier: ">"
  TGI: 74.9
- Compound: "Cc1nnc(SCc2nc(C#N)c(C#N)nc2CSc2nnc(C)s2)s1"
  Output unit: "µM"
  Relation qualifier: "="
  TGI: 26.8
- Compound: "COc1c(OC2OC(CO)C(O)C(O)C2O)cc2c(c1OC)-c1ccc(OC)c(=O)cc1C(NC(C)=O)CC2 (stereo unspecified)"
  Output unit: "µM"
  Relation qualifier: ">"
  TGI: 100
- Compound: "CC(C)(C)C1=NO[C@H]2[C@@H](NC(=O)c3ccccc3)CC[C@@H]12"
  Output unit: "µM"
  Relation qualifier: ">"
  TGI: 100
- Compound: "O=C(Nc1ccc(-n2cc(-c3ccncc3)c(-c3ccc(O)c(Cl)c3)n2)cc1)Nc1cc(C(F)(F)F)cc(C(F)(F)F)c1"
  Output unit: "µM"
  Relation qualifier: "="
  TGI: 5.74
- Compound: "OCc1ccc(-c2ccc(-c3ccc(CO)o3)o2)o1"
  Output unit: "µM"
  Relation qualifier: ">"
  TGI: 100
- Compound: "CCOC(=O)c1cc(C(=O)c2ccc(OC)c(OC)c2)n2c1ccc1ccc3cccnc3c12"
  Output unit: "µM"
  Relation qualifier: ">"
  TGI: 100
- Compound: "COc1ccc(N(CC(=O)O)N=O)cc1"
  Output unit: "µM"
  Relation qualifier: ">"
  TGI: 100
